IC50 values, listed per item
Target: Bovine PDE6 (Bos taurus, UniProt P11541+P23439)
Construct: Hypotonic extracts were prepared by suspending isolated ROS; tissue Dr. N. Virmaux, INSERM U338, Strasbourg
Sequence (P11541 2-856 limits assumed): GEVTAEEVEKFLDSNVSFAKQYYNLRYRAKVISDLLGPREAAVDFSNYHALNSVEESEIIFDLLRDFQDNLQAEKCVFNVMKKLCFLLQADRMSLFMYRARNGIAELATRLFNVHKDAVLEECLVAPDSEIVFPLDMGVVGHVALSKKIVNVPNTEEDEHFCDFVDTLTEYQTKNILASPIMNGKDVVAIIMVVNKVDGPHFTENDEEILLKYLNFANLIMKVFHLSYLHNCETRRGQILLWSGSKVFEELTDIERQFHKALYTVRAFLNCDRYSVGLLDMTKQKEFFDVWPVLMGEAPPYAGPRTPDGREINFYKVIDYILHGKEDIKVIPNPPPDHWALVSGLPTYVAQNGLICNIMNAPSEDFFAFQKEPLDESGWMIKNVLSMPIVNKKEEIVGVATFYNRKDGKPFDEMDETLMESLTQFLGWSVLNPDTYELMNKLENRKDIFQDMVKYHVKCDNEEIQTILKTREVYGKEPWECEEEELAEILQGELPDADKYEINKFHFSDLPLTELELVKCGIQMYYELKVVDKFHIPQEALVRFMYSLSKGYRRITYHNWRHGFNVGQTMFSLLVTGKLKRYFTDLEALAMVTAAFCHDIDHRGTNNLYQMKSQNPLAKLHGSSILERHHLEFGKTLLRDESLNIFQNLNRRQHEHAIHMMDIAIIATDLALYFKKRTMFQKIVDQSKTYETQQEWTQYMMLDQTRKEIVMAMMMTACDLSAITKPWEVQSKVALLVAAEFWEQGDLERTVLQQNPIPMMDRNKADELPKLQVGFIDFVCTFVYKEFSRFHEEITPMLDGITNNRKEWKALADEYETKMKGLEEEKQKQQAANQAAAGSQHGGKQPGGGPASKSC
Sequence (P23439 2-850 limits assumed): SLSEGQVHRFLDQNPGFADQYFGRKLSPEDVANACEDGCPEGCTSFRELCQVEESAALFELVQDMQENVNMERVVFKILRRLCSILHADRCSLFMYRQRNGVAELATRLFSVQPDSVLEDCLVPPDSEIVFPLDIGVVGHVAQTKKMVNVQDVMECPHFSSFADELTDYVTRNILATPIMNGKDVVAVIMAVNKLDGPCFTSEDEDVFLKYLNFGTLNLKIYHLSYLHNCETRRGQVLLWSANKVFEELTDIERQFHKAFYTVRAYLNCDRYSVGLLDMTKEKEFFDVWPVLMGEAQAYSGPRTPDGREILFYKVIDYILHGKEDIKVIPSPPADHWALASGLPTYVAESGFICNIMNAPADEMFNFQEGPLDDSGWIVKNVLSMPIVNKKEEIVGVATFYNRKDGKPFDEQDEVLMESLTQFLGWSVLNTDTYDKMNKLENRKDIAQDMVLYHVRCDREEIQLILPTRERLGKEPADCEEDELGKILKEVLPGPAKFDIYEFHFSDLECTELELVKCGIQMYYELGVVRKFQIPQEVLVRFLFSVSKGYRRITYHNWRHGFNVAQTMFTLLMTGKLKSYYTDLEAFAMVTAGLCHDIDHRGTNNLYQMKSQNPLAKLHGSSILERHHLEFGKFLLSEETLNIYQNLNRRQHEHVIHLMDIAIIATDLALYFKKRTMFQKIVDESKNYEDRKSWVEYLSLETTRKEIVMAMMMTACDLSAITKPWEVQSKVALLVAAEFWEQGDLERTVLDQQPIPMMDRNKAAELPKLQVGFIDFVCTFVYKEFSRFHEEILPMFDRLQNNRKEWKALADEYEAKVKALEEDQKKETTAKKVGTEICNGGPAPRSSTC
Sequence (P04972 whole entry partner): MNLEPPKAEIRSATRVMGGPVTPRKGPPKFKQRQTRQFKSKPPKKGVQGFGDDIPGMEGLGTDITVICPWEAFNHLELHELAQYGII
Test: PDE6 enzyme inhibition, IC50 determination
Protocol: Bovine PDE6 was supplied by Dr. N. Virmaux, INSERM U338, Strasbourg. Bovine retinas were prepared as described by Virmaux et al., FEBS Letters, 12(6), pp. 325-328 (1971) and see also, A. Sitaramayya et al., Exp. Eye Res., 25, pp. 163-169 (1977). Briefly, unless stated otherwise, all operations were done in the cold and in dim red light. Eyes were kept in the cold and in the dark for up to four hours after slaughtering. […]
Numbers only; they are read as nM.

Use the examples below as a reference point.
> print(dat)
                                   compound                           subject.of.test  assay.result
1  CC1NC(=O)C2Cc3c([nH]c4ccccc34)C(c3ccc4c(c3)OCO4)N2C1=O (stereo not shown) [Compound 4]  Bovine PDE6 (Bos taurus, UniProt P11541+P23439)           729
2  CN1CC(=O)N2[C@H](c3ccc4c(c3)OCO4)c3[nH]c4ccccc4c3C[C@@H]2C1=O [Compound 5]  Bovine PDE6 (Bos taurus, UniProt P11541+P23439)          3400
3  O=C1C2Cc3c([nH]c4ccccc34)C(c3ccc4c(c3)OCO4)N2C(=O)CN1Cc1cccc(NS(=O)(=O)C(F)(F)F)c1 (stereo not shown) [Compound 3]  Bovine PDE6 (Bos taurus, UniProt P11541+P23439)           420

Moving on to the next compound.
Lookup: Suppose we examine the compound O=C1C2Cc3c([nH]c4ccccc34)C(c3ccc4c(c3)OCO4)N2C(=O)CN1Cc1ccc(NS(=O)(=O)C(F)(F)F)cc1 (stereo not shown) [Compound 1] ; what IC50 value has been reported?
Found: 663
